Data provenance: patent US20210206856A1

- tested_on: T1, human MAdCAM expressed on cells (human, UniProt Q13477 19-382)
- T1 construct: whole, on cells; also called MADCAM1
- T1 sequence (looked up): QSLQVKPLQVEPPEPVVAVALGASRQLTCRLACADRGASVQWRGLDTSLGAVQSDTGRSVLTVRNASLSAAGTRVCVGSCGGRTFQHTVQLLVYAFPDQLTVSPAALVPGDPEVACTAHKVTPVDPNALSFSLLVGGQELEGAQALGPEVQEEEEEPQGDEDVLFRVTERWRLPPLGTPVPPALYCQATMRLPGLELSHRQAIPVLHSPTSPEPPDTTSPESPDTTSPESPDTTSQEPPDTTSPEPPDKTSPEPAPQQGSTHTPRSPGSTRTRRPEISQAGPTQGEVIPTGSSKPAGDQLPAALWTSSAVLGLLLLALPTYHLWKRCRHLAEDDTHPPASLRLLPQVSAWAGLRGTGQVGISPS
- assay_notes: cell binding

binder	binding result
MAdCAM Antibody Table 2 Clone 33 (antibody, human IgG1, V domains shown) VH: QVQLVQSGAEVKKPGASVKVSCKASGYTLTTWYMYWVRQAPGQGLEWMGWINPNRGATNYAQKFQGRVTMTRDTSTSTVYMELSSLRSEDTAVYYCAKGDLWGAMDVWGQGTTVTVSS VL: DIQMTQSPSSLSASVGDRVTITCRASDNIGSWLAWYQQKPGKAPKLLIYAASSLQSGVPSRFSGSGSGTDFTLTISSLQPEDFATYYCQQGYSTPPTFGQGTKVEIK	binds
MAdCAM Antibody Table 2 Clone 10 (antibody, human IgG1, V domains shown) VH: EVQLLESGGGLVQPGGSLRLSCAASGFMFGDYAMHWVRQAPGKGLEWVSAISGSGGSTYYADSVKGRFTISRDNSKNTLYLQMNSLRAEDTAVYYCAKDLVVAGIWYFDLWGRGTLVTVSS VL: DIQMTQSPSSLSASVGDRVTITCRASQGISNNLNWYQQKPGKAPKLLIYDASSLESGVPSRFSGSGSGTDFTLTISSLQPEDFATYYCQQTHSFPSTFGQGTKLEIK	binds
MAdCAM Antibody Table 2 Clone 16 (antibody, human IgG1, V domains shown) VH: EVQLLESGGGLVQPGGSLRLSCAASGFTFDDYAMHWVRQAPGKGLEWVSYIDASGTTIYYADSVKGRFTISRDNSKNTLYLQMNSLRAEDTAVYYCAKDQAAAGYWYFDLWGRGTLVTVSS VL: DIQMTQSPSSLSASVGDRVTITCQASQDISNYLNWYQQKPGKAPKLLIYKASTLESGVPSRFSGSGSGTDFTLTISSLQPEDFATYYCQQSYSTPITFGQGTRLEIK	binds
